Sourced from patent US9708334B2

Here the recorded IC50 is given for each entry.
Biological target: GlyT1 (Homo sapiens)
Construct: expressed in transfected cells
Assay: Glycine Transporter 1 (GlyT1) uptake assay, scintillation proximity assay of [14C]-glycine uptake
Assay type: cell-based
Settings: SPA, four parameter logistic fit, read-out: GlyT1 (pIC50) (converted)

Answered examples (4):
> print(dat)
                              record.smiles        measured
1  COCCCn1ncc2c1CN(C(=O)c1cc(C#N)ccc1O[C@@H](C)C(F)(F)F)C2      > 10000 nM
2  CCS(=O)(=O)c1ccc(-c2cc(F)cc(F)c2)c(C(=O)N2Cc3cn(-c4cncc(F)c4)nc3C2)c1  100 to 1000 nM
3  Cc1cccc(-n2cc3c(n2)CN(C(=O)c2cc(C#N)ccc2O[C@@H](C)C(F)(F)F)C3)c1F  100 to 1000 nM
4  Cc1nc(-n2cc3c(n2)CN(C(=O)c2cc(C#N)ccc2OC(C)C)C3)ccc1F  100 to 1000 nM

IC50 measured on `Cc1ccc(F)c(-n2cc3c(n2)CN(C(=O)c2cc(S(C)(=O)=O)ccc2OC(C)C)C3)c1` = < 100 nM

IC50 measured on `CS(=O)(=O)c1ccc(OCC2CC2)c(C(=O)N2Cc3cn(-c4cccc(C(F)(F)F)c4F)nc3C2)c1` = < 100 nM

IC50 measured on `CC(C)Oc1ccc(C#N)cc1C(=O)N1Cc2cnn(CC(F)(F)F)c2C1` = 100 to 1000 nM

* * *

Here the recorded IC50 is given for each entry.
Molecular target: GlyT1 (Homo sapiens, UniProt P48067)
Construct: expressed in transfected cells
Sequence (P48067 1-706): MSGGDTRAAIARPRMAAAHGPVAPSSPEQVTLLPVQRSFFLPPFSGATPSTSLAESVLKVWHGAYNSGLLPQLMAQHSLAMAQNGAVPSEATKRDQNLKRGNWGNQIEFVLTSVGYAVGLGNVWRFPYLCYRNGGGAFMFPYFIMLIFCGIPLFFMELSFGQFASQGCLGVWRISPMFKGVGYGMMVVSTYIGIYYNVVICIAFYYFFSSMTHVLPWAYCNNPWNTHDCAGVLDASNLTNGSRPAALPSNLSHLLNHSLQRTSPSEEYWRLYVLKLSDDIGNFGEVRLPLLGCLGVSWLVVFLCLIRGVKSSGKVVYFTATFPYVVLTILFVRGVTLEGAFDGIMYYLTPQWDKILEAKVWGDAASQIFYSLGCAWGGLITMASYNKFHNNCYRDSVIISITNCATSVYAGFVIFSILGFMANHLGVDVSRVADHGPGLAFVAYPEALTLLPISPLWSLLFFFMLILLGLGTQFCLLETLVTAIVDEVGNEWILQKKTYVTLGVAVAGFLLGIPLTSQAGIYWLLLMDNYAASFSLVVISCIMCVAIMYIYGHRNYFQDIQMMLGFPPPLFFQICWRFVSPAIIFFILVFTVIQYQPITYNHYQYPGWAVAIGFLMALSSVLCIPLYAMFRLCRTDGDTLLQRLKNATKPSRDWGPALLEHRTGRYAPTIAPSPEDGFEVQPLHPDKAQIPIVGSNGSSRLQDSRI
Test: Glycine Transporter 1 (GlyT1) uptake assay, scintillation proximity assay of [14C]-glycine uptake
Type: cell-based
Conditions: SPA, four parameter logistic fit, read-out: GlyT1 (pIC50) (converted)
Protocol: Glycine Transporter 1 (GlyT1) Uptake Assay Plates were then read on a MicroBeta plate counter (Perkin Elmer). Dose-response data for tested compounds were analyzed and curves were fit using a four parameter logistic fit to determine IC50 values. […]

Answered examples (4):
> print(dat)
                              record.smiles  measured.quantity          measured
1  C[C@H](Oc1ccc(C#N)c(Cl)c1C(=O)N1CCc2[nH]nc(-c3ccc(C(F)(F)F)cc3)c2C1)C(F)(F)F               IC50  1000 to 10000 nM
2  C[C@H](Oc1ccc(S(=O)(=O)CC2CC2)cc1C(=O)N1Cc2cn(-c3ccccc3)nc2C1)C(F)(F)F               IC50        > 10000 nM
3  COc1c(C#N)ccc(OCC2CC2)c1C(=O)N1Cc2cn(-c3ccc(F)cn3)nc2C1               IC50          < 100 nM
4  C[C@H](Oc1ccc(C#N)cc1C(=O)N1Cc2cn(CC3CC(F)(F)C3)nc2C1)C(F)(F)F               IC50    100 to 1000 nM

Field: next compound
IC50 measured on `COc1c(C#N)ccc(OCC(F)(F)F)c1C(=O)N1Cc2cn(-c3ccc(F)c(C)n3)nc2C1` = < 100 nM
